src = the supplement of paper PMC8671470

- Test system: BV-173
- experimental parameters: 72 h
measurement kind: IC50 (cell viability)

The value of IC50 (cell viability) recorded for O=C1Nc2ccccc2/C1=C\NCCc1ccc(O)c(O)c1 when tested on BV-173 reads > 10 µM

The value of IC50 (cell viability) recorded for Cc1noc2c1-c1ccccc1C(c1ccc(Cl)cc1)=N[C@H]2CC(N)=O when tested on BV-173 reads 0.538 µM

The value of IC50 (cell viability) recorded for CCOC(=O)N1c2ccc(C(F)(F)F)cc2[C@@H](N(Cc2cc(C(F)(F)F)cc(C(F)(F)F)c2)C(=O)OC)C[C@H]1CC when tested on BV-173 reads 0.652 µM

The value of IC50 (cell viability) recorded for Clc1ccc(COC(Cn2ccnc2)c2ccc(Cl)cc2Cl)cc1 (stereo unspecified) when tested on BV-173 reads 2.28 µM

The value of IC50 (cell viability) recorded for CCOC(=O)[C@@]1(CCCCCCOc2ccc(Cl)cc2)CO1 when tested on BV-173 reads 6.76 µM

The value of IC50 (cell viability) recorded for CCCc1nn(C)c2c(O)nc(-c3cc(S(=O)(=O)N4CCN(C)CC4)ccc3OCC)nc12 when tested on BV-173 reads > 10 µM

The value of IC50 (cell viability) recorded for Cl.OC[C@H]1NC[C@@H](O)[C@@H](O)[C@@H]1O [1-Deoxymannojirimycin hydrochloride] when tested on BV-173 reads > 10 µM

The value of IC50 (cell viability) recorded for O=C(O)C(Cl)Cl [Dichloroacetate] when tested on BV-173 reads > 10 µM

The value of IC50 (cell viability) recorded for CC(C)Cc1sc(N)nc1-c1ccc(P(=O)(O)O)o1 when tested on BV-173 reads > 10 µM

The value of IC50 (cell viability) recorded for CC(C)C[C@H](NC(=O)[C@@H](O)[C@H](N)Cc1ccccc1)C(=O)O when tested on BV-173 reads > 10 µM

The value of IC50 (cell viability) recorded for Nc1ccn([C@@H]2O[C@H](CO)[C@@H](O)[C@@H]2O)c(=O)n1 when tested on BV-173 reads 0.00472 µM

The value of IC50 (cell viability) recorded for Clc1ccccc1CN1CCc2sccc2C1 when tested on BV-173 reads > 10 µM

The value of IC50 (cell viability) recorded for CCOC(=O)[C@H]1O[C@@H]1C(=O)N[C@@H](CC(C)C)C(=O)NCCC(C)C when tested on BV-173 reads > 10 µM

The value of IC50 (cell viability) recorded for Oc1cc(Cl)ccc1Oc1ccc(Cl)cc1Cl when tested on BV-173 reads > 10 µM

The value of IC50 (cell viability) recorded for N[C@](CCCCB(O)O)(CCN1CCCCC1)C(=O)O when tested on BV-173 reads > 10 µM

The value of IC50 (cell viability) recorded for O=C1Oc2ccccc2C(=O)C1CC1C(=O)Oc2ccccc2C1=O (stereo unspecified) when tested on BV-173 reads > 10 µM

----------
Would you kindly list cell viability for each of these compounds?
- Test system: KG-1
- assay explanation: cell viability (% survival relative to DMSO control, bortezomib = 0%); higher = less cytotoxic
- experimental parameters: 1 nM; 72 h
Numbers only here, please. The scale is %.

For record Sc1ncnc2nc[nH]c12 the listed cell viability is 112

For record C#Cc1cnc(O)nc1O the listed cell viability is 103

For record O=C(c1ccc(OCCN2CCCCC2)cc1)c1c(-c2ccc(O)cc2)sc2cc(O)ccc12 the listed cell viability is 102

For record CCOc1ccc(Cc2cc([C@@H]3O[C@H](CO)[C@@H](O)[C@H](O)[C@H]3O)ccc2Cl)cc1 the listed cell viability is 95.5

For record CN(C)c1nc(O)c2[nH]cnc2n1 [2-Dimethylamino-6-hydroxypurine] the listed cell viability is 106
